Hey, just so you know, these numbers are from ChEMBL document CHEMBL4330131.

target: Histone-lysine N-methyltransferase EHMT2 (Homo sapiens, UniProt Q96KQ7)
Sequence (Q96KQ7 whole entry): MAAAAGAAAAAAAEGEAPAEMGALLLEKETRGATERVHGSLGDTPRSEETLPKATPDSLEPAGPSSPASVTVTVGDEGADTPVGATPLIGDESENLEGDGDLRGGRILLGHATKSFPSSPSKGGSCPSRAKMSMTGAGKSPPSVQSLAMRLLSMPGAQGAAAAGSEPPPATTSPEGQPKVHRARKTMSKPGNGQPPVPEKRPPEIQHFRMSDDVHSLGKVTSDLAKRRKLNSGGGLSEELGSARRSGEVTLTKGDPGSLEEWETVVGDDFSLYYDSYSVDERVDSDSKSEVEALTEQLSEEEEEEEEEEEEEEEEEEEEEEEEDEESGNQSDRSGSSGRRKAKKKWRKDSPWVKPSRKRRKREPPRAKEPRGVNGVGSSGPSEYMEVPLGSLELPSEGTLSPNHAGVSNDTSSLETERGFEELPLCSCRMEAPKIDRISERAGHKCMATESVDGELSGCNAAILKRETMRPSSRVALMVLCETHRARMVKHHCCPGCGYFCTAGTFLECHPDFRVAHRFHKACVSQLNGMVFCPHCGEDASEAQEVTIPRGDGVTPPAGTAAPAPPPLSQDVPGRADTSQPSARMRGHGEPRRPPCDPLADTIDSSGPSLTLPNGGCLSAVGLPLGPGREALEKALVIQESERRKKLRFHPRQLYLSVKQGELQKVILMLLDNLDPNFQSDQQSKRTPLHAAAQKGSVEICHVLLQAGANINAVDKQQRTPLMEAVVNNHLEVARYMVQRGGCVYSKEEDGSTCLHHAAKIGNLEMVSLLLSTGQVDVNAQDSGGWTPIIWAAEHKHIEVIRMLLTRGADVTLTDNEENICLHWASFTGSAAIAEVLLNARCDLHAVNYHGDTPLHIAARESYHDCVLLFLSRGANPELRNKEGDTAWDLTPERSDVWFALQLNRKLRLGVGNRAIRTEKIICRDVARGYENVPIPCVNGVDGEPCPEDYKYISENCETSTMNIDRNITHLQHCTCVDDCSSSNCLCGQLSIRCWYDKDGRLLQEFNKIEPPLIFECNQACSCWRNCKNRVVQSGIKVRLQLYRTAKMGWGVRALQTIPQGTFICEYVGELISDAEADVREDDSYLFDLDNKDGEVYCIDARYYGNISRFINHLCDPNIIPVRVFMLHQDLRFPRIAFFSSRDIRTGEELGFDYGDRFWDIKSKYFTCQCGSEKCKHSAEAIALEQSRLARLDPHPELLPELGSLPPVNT
pIC50: −log10 of the molar value.
property name: pIC50

Item CCCCOc1ccc(S(=O)(=O)Nc2ccc(C(=O)O)cc2)cc1C was tested on Histone-lysine N-methyltransferase EHMT2 (Homo sapiens, UniProt Q96KQ7); the reported pIC50 is < 4.00

* * *

target: UniProt Q99873
Sequence (Q99873 whole entry): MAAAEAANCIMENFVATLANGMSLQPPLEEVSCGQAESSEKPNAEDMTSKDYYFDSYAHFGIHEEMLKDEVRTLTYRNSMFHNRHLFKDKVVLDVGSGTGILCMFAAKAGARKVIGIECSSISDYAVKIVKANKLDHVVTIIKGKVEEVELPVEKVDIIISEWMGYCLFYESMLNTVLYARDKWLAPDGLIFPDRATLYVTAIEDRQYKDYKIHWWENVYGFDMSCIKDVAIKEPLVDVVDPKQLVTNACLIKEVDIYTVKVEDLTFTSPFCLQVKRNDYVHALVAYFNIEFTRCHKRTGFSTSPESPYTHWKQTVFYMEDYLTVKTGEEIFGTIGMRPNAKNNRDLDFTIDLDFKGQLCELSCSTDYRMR
property name: IC50

Entry CCCCOc1ccc(S(=O)(=O)Nc2ccc(C(=O)O)cc2)cc1C ; assay system UniProt Q99873; IC50 recorded at > 100 µM
